Origin of values: patent EP0361341A2

- System: HIV-I
- assay_summary: p24 antigen capture assay in HIV-I infected H9 lymphocytes (in vivo assay of HIV protease activity, Example 53)
- Type: cell-based
- condition_notes: H9 lymphocytes infected with HIV-I, three days at 37 C, relative to infected, untreated cultures; read-out: concentration showing 50% inhibition of p24 formation
- Experimental: A p24 capture assay (see Example 50 hereinbelow) provides an "in vivo" method for determining HIV-protease activity. The inhibitor is added to cells infected with HIV, […]. Inhibition of propagation of HIV-protease in cells is measured by the absence or presence of p24, which is generated by HIV protease. H9 lymphocytes (1x 10^7 cells/ml) were incubated in the presence or absence of HIV-I for 1 hour at 37 C. […]
test_readout: pIC50
# pIC50: negative log10 of molar concentration; output just the value

Could you tell me which pIC50 is on file for CC[C@H](C)[C@H](NC(=O)[C@@H]1CCCN1CC(Cc1ccccc1)NC(=O)[C@H](CC(N)=O)NC(=O)[C@H](Cc1ccccc1)NC(=O)OC(C)(C)C)C(=O)OCc1ccccc1 (stereo partly shown) ? 3.70
